inhibition at 1 µM values for the compounds below.
measurementTarget: HDAC6 (Homo sapiens)
Construct: purchased BPS Bioscience 50006
assayProcedure: HDAC6 (ZMAL) fluorogenic activity assay
Assay type: biochemical
conditionNotes: at 1 μM; read-out: HDAC6 (ZMAL) percent enzyme inhibition
Field: numeric (%). Do not append units.

*Q* Any idea what inhibition at 1 µM was measured for O=C(NO)C1CCN(CC(c2ccccc2)c2ccccc2)CC1 ?
*A* 19

*Q* Any idea what inhibition at 1 µM was measured for O=C(NO)C1CCN(CCc2ccc(Br)cc2)CC1 ?
*A* -4

*Q* Any idea what inhibition at 1 µM was measured for O=C(NO)C1CCN(Cc2ccc(-c3ccccc3)cc2)CC1 ?
*A* 11

*Q* Any idea what inhibition at 1 µM was measured for O=C(NO)C1CCN(CCc2cccc(Br)c2)CC1 ?
*A* -2

* * *

measurementTarget: HDAC6 (Homo sapiens, UniProt Q9UBN7)
Construct: purchased BPS Bioscience 50006
Sequence (Q9UBN7 whole entry): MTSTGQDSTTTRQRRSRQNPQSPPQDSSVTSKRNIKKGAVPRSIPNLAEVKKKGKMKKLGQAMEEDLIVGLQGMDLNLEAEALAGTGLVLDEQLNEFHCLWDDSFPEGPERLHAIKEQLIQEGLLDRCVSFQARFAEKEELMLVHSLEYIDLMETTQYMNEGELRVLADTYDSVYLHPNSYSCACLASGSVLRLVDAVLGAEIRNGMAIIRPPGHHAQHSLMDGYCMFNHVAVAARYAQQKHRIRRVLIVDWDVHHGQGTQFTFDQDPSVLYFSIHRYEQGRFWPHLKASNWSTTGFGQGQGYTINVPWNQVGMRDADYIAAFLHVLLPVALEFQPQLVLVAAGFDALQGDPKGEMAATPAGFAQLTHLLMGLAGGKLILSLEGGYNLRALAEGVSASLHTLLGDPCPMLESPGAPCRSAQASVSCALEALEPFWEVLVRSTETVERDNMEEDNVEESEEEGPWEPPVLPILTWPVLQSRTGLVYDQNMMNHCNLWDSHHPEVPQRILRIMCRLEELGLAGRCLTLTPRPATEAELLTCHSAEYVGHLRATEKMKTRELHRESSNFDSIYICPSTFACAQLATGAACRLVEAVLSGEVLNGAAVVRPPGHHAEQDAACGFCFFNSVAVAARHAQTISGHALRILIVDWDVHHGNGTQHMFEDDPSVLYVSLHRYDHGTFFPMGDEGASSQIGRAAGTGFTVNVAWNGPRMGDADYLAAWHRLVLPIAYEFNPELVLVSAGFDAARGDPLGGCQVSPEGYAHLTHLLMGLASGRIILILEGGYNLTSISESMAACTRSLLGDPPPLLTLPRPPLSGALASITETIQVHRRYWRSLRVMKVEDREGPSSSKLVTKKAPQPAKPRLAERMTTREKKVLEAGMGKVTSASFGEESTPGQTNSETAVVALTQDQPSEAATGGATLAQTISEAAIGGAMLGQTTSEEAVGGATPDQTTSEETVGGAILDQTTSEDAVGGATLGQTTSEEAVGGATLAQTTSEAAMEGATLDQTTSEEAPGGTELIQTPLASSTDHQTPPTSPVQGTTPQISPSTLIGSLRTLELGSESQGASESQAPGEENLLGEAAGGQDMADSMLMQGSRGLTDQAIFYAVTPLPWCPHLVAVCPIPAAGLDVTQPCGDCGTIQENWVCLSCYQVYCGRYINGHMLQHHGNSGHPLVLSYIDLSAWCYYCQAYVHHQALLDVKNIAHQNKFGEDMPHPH
assayProcedure: HDAC-Glo I/II assay, HDAC6
Type: biochemical
conditionNotes: recombinant human HDAC6, HDAC-Glo; read-out: pIC50 HDAC6 Glo (converted)
outcomeMeasure: IC50 (µM)
Field: numeric (µM). Do not append units.

{"structureString": "CN(CCCC(=O)NO)CCNC(=O)c1ccccc1O", "resultUnit": "µM", "IC50": 12.6}
{"structureString": "CN(CCCC(=O)NO)CCCC(=O)Nc1ccccc1", "resultUnit": "µM", "IC50": 12.6}
{"structureString": "O=C(CCCN(CCC(=O)Nc1ccccc1)Cc1ccccc1)NO", "resultUnit": "µM", "IC50": 1}
{"structureString": "CN(CCNC(=O)CS)CCNC(=O)c1ccccc1", "resultUnit": "µM", "IC50": 3.98}
{"structureString": "CN(CCCC(=O)NO)CCNC(=O)c1ccc2ccccc2c1", "resultUnit": "µM", "IC50": 1.26}
{"structureString": "COc1ccc(C(=O)NCCN(C)CCCC(=O)NO)c2ccccc12", "resultUnit": "µM", "IC50": 2.51}
{"structureString": "CN(CCCC(=O)NO)CCNC(=O)c1ccc(O)cc1", "resultUnit": "µM", "IC50": 2}
{"structureString": "CCCCN(CCCC(=O)NO)CCC(=O)Nc1ccccc1", "resultUnit": "µM", "IC50": 5.01}

Field: next compound
*Q* Any idea what IC50 was measured for CN(CCCC(=O)NO)CCNC(=O)c1ccc2cn[nH]c2c1 ?
*A* 3.16

* * *

measurementTarget: HDAC6 (Homo sapiens, UniProt Q9UBN7)
Construct: purchased BPS Bioscience 50006
assayProcedure: HDAC-Glo I/II assay, HDAC6
Format: biochemical
conditionNotes: recombinant human HDAC6, HDAC-Glo; read-out: pIC50 HDAC6 Glo (converted)
IC50 values for the compounds below.
Field: numeric (µM). Do not append units.

{"structureString": "CN(CCCC(=O)NO)CCNC(=O)c1ccc(N)cc1", "resultUnit": "µM", "IC50": 3.98}
{"structureString": "CN(CCCC(=O)NO)CCNC(=O)c1ccc(-c2ccccc2)cc1", "resultUnit": "µM", "IC50": 3.16}
{"structureString": "CN(CCCC(=O)NO)CCNS(=O)(=O)c1ccccc1", "resultUnit": "µM", "IC50": 6.31}
{"structureString": "CC(C)N(CCCC(=O)NO)CCC(=O)Nc1ccccc1", "resultUnit": "µM", "IC50": 12.6}
{"structureString": "CN(CCCNC(=O)c1ccccc1)CCCC(=O)NO", "resultUnit": "µM", "IC50": 25.1}

*Q* Any idea what IC50 was measured for CN(CCCC(=O)NO)CCNC(=O)c1c2ccccc2cc2ccccc12 ?
*A* 0.631
